For each entry below, report its SPOT peptide array binding signal intensity value.
- SYSTEM: CaBbc1
- EXPERIMENT NOTES: SPOT peptide array binding signal intensity (averaged, normalized) (arbitrary units (background-subtracted, floor 0; scale differs between SH3 domains)); higher = stronger binding of the SH3 domain to the peptide
No unit in the answer, only the number.

Q) Recorded SPOT peptide array binding signal intensity for GATNNAPTLPKRKNP , please?
A) 532

Q) Recorded SPOT peptide array binding signal intensity for IKTRSVPKIPSIESV , please?
A) 604

Q) Recorded SPOT peptide array binding signal intensity for PSPSSSPPPIPKTAN , please?
A) 1

Q) Recorded SPOT peptide array binding signal intensity for PSRRDSLSIPRAVDA , please?
A) 354
